MEASURE: melting point

[[record]]
compound = "COC(=O)COC(=O)C(Cc1cc(=O)[nH]c2ccccc12)NC(=O)c1ccc(Cl)cc1 (stereo not given)"
recorded_value = "202 to 204 °C"

[[record]]
compound = "Cc1c(-c2ccc(C#N)cc2)c(C#N)c(C2CC2)n1Cc1cnc(Cl)c(COC(=O)CCC(=O)O)c1"
recorded_value = "188 to 189 °C"

[[record]]
compound = "O=C1CCC2=C(CCc3c(F)cccc32)N1"
recorded_value = "233 to 234 °C"

[[record]]
compound = "CC1(C)NC(=S)NC1=S"
recorded_value = "144 °C"


Need melting point of ON=Cc1ccc(Cl)c(I)c1 , thanks.
97 to 99 °C

How about O=C(O)/C=C/c1ccc(OCCN2CCCC2)cc1 ?
183 °C

How about CC1(C(=O)O)OCCC2=CC3=CC=CCC3=C21 (stereo not given) ?
171 to 173 °C

How about Cn1c(=O)ccc2cc(COc3cccc(C4(C#N)CCOCC4)c3)ccc21 ?
149 to 150 °C

How about O=C(O)c1ccc(-c2ccc3cc(O)c(C45CC6CC(CC(C6)C4)C5)cc3c2)cc1 ?
295 to 300 °C

How about Cc1cn(N=Cc2cccnc2)c(=O)n1CC#N ?
195 to 198 °C

How about COc1cccc(CC2(c3ccc4[nH]ccc4c3)CCNC2)c1 (stereo not given) ?
170 to 171 °C

How about COc1ccc(N(C(=O)C(C)c2ccccc2)c2cccc(Nc3c(N)c(=O)c3=O)c2)cc1 (stereo not given) ?
168 to 170 °C

How about CCCNCc1cnc(-c2ncn3c2[C@@H]2CCN2C(=O)c2sccc2-3)o1 ?
145 to 147 °C

How about CCC(NC(=O)c1c(O)c(-c2ccccc2)nc2ccccc12)c1ccccc1 (single isomer, unassigned; (-)) ?
122 to 125 °C

How about COc1c(CO)cccc1Oc1ccccc1C ?
63 to 65 °C

How about CC(=O)Oc1ccc(C2=NNC(=O)CC2C)cc1 (stereo not given) ?
152 to 153 °C

How about CN(c1cccc2cc(C3=NCC(CC(=O)O)S3)[nH]c12)S(=O)(=O)c1cccs1 (stereo not given) ?
232 to 234 °C

How about O=C(NC1N=C(c2ccccc2F)c2ccccc2NC1=O)c1ccsc1 (racemic) ?
238 to 239 °C

How about CCOC(=O)C(S)CC(=O)c1ccc(Oc2ccccc2)cc1 (stereo not given) ?
46 to 47.5 °C

How about COC(=O)CCCCN(CCc1cc(-c2ccc(F)cc2F)ccc1OCc1ccc(-c2ccc(C(F)(F)F)cc2)cc1)Cc1ccc(C(=O)OC)cc1 ?
> 240 °C

---

MEASURE: melting point

In the examples that follow, each entry is paired with its recorded melting point.
[[record]]
compound = "CCC(=O)c1[nH]c(=O)[nH]c1C"
recorded_value = "270 to 271 °C"

[[record]]
compound = "CC1CC(NC(=O)C(F)(F)F)=NN1c1ccc(Cl)c(Cl)c1 (stereo not given)"
recorded_value = "150 to 152 °C"

[[record]]
compound = "Cc1ccc(-n2c(=O)n(OCc3ccccc3)c(=O)c3cc(F)c(N4CCCC4)nc32)cc1"
recorded_value = "192 to 194 °C"

[[record]]
compound = "CCc1c(Cl)cc(C(C)(C)C)c(O)c1-c1nc2ccc(S(=O)(=O)C(F)(F)F)cc2c(=O)[nH]1"
recorded_value = "285 to 286 °C"


Need melting point of CC(=O)OCCc1c(-c2ccccc2)nc(N)n2ncnc12 , thanks.
181 to 182 °C

---

Catalogue of melting point readings, one per entry.

[[record]]
compound = "N#Cc1cc(Cl)c(NC(=O)NC(=O)c2ccccc2Cl)cc1Cl"
recorded_value = "244 to 247 °C"

[[record]]
compound = "FC(F)(F)c1ccc(Oc2ccc3nnsc3c2)c(Cl)c1"
recorded_value = "72 to 73 °C"

[[record]]
compound = "CC(C)n1cc(C(=O)NCc2ccc(Cl)cc2)c(=O)c2cc(CN3CCOCC3)sc21"
recorded_value = "191 to 195 °C"

[[record]]
compound = "CN(Cc1cccc2c1C(=O)N(C1CCC(=O)NC1=O)C2=O)C(=O)Nc1ccc2ccccc2c1 (stereo not given)"
recorded_value = "> 260 °C"


Please turn your attention to the following entry.
Need melting point of O=c1ccc2c(-c3ccco3)nccc2[nH]1 , thanks.
> 300 °C

---

MEASURE: melting point

In the examples that follow, each entry is paired with its recorded melting point.
[[record]]
compound = "O=C1NC(C(=O)NCCO[N+](=O)[O-])C(c2cccnc2)S1 (configuration not stated)"
measure = "melting point"
recorded_value = "139 to 140 °C"

[[record]]
compound = "COC(=O)c1cc(C)c(C(OC(=O)C(Cc2ccccc2)NS(=O)(=O)c2ccc(C)cc2)c2cc(-n3ccnc3)ccc2C)c(C)c1 (configuration not stated)"
measure = "melting point"
recorded_value = "111 to 112 °C"


Need melting point of CNC(=O)c1cccc(NC(=O)COc2ccc3ccccc3c2)c1 , thanks.
174 °C

How about CCC(C)(C)c1ccc(OCCCC(=O)Nc2ccc(Cl)c(NC(=O)C(C(=O)c3ccc(OC)cc3)N3C(=O)NC(=C(C)C)C3=O)c2)c(C(C)(C)CC)c1 (configuration not stated) ?
140 to 141 °C

How about COc1ccc(C2(C34CC5CC(CC(C5)C3)C4)N=C(N)N(C)C2=O)cc1 (configuration not stated) ?
150 to 155 °C

How about CCn1nc(C)c2c(NCc3ccccc3)c3ccccc3nc21 ?
228 to 231 °C

How about CCOC(=O)C1=C(C)NC(=S)N(C(=O)OCC)C1c1ccccc1C(F)(F)F (configuration not stated) ?
106 to 108 °C

How about C=C1CCc2c(F)c(F)cc3c(=O)c(C(=O)OCC)cn1c23 ?
272 to 274 °C

How about CC(=O)Nc1cc(C(C)=O)ccc1OCCCN1CCC(c2noc3cc(F)ccc23)CC1 ?
108 to 110 °C

How about O=C(O)CCCc1cc2cc(Cl)ccc2n1S(=O)(=O)c1cccc2ccccc12 ?
206 to 210 °C

How about CCOC(=O)c1cccc(NC(=O)NCC(=O)N2[C@@H](c3ccccc3)SC[C@H]2C(=O)OC(C)(C)C)c1 ?
85 °C

How about O=C1c2cccc(NC3CCCC3)c2C(=O)c2cccc(NC3CCCC3)c21 ?
198 to 201 °C

---

Catalogue of melting point readings, one per entry.

In the examples that follow, each entry is paired with its recorded melting point.
[[record]]
compound = "COc1cc(C=Cc2ccccc2)ccc1OCC(O)CCCc1cccnc1 (stereo not drawn)"
recorded_value = "110 to 111 °C"

[[record]]
compound = "N#Cc1cc(O)ccc1Br"
recorded_value = "183 to 184 °C"

[[record]]
compound = "O=c1cc(Nc2cc([N+](=O)[O-])ccc2Cl)[nH]n1-c1c(Cl)cc(Cl)cc1Cl"
recorded_value = "274 to 278 °C"

[[record]]
compound = "COc1ccc(Cl)cc1NC(=O)[C@H]1[C@H](c2ccc(Cl)cc2)C1(C)C (relative stereo)"
recorded_value = "162 to 164 °C"

[[record]]
compound = "Nc1c(Cl)cc(C(O)CNCCCCCCOCCc2ccc(N3CCOCC3)cc2)cc1Cl (stereo not drawn)"
recorded_value = "102 to 103 °C"


Need melting point of CCCC(=O)c1cc2c(cc1C)NC(=O)C2(O)C(=O)OCC (stereo not drawn) , thanks.
180 to 181 °C

How about O=C1OCC2Cc3ccccc3OC12 (stereo not drawn) ?
107 to 111 °C

How about COC(C)CCC1(O)C2=NCCCN2c2cccc(Cl)c21 (stereo not drawn) ?
164 to 165 °C

How about C#Cc1ccc(-c2c(F)cccc2F)cc1 ?
81 to 83 °C

How about CC(=O)Oc1c(C(C)(C)C)cc2oc(C=O)cc2c1C(C)(C)C ?
160 °C

How about C=C(C)C#Cc1ccc2c(c1)NC(=O)CC(c1cccc(C#N)c1)=N2 ?
231 °C

How about O=Cc1ccc(-c2ccc(O)cc2)c2sccc12 ?
202 to 204 °C

How about O=C(NCCCn1cncn1)c1ccc(Cl)c(Cl)c1 ?
128 to 130 °C

How about Cc1ccc(S(=O)(=O)c2cc3cnc(C)nc3nc2O)cc1 ?
> 200 °C

How about O=c1cc(-c2cc[nH]n2)oc2ccc(Cl)cc12 ?
217 to 219 °C

---

MEASURE: melting point

In the examples that follow, each entry is paired with its recorded melting point.
[[record]]
compound = "O=C1CCC2(CCOC2=O)C(=O)C1 (stereo not given)"
recorded_value = "145 to 148 °C"

[[record]]
compound = "Cc1nn(-c2cc(OS(C)(=O)=O)c(Cl)cc2F)c(C)c1[N+](=O)[O-]"
recorded_value = "150 to 152 °C"

[[record]]
compound = "OC(CCCC(O)c1ccccc1)c1ccccc1 (stereo not given)"
recorded_value = "64 to 67 °C"

[[record]]
compound = "Cc1cccc2nc(O)n(C3CCC(=O)NC3=O)c(=O)c12 (stereo not given)"
recorded_value = "373 to 375 °C"


Need melting point of CCOCc1nc2c(N)nc(C)c(C)c2n1CCCCS(N)(=O)=O , thanks.
200 to 202 °C

How about O=C(c1cccc(Cl)c1)c1ccnc2ccccc12 ?
92.7 °C

How about CCCc1c(OCC2COc3cc(CC(=O)OC)ccc3O2)ccc(C(C)=O)c1O (stereo not given) ?
72 to 75 °C

How about CN1CCC2(CC1)c1ccccc1C(O)c1ccccc12 ?
208 to 210 °C

How about CC(C)(C#N)c1cc(CCl)cc(C(C)(C)C#N)c1 ?
119 to 121 °C

How about COC(=O)C(=O)c1ccc(OCCCCCCOc2ccccc2)cc1 ?
50 to 52 °C

How about CCC(C)(C)Nc1c(NCc2cc(Cl)ccc2Cl)c(=O)c1=O ?
195 to 196 °C
